# RUN_CONDITIONS: female, human, serum, po, 4 capsules/day, Vd/F, high dose (4 capsules), mean ± S.D., N = 5
Hi there, I'd appreciate the recorded Vd/F for every entry that follows.
Field format: number, assumed L, no unit text.

Endpoint output: Vd/F of COc1cc(O)c(CC=C(C)C)c(O)c1C(=O)/C=C/c1ccc(O)cc1 . Value? 7880

Endpoint output: Vd/F of COc1cc(O)c(CC=C(C)C)c2c1C(=O)CC(c1ccc(O)cc1)O2 (stereo not drawn) . Value? 182

Endpoint output: Vd/F of CC(C)=CCc1c(O)cc(O)c2c1O[C@H](c1ccc(O)cc1)CC2=O . Value? 271

----------
Hi there, I'd appreciate the recorded Cmax for every entry that follows.
# RUN_CONDITIONS: female, human, serum, po, 2 capsules/day, Cmax, medium dose (2 capsules), mean ± S.D., N = 5
Field format: number, assumed ng/mL, no unit text.

Endpoint output: Cmax of COc1cc(O)c(CC=C(C)C)c(O)c1C(=O)/C=C/c1ccc(O)cc1 . Value? 22.2

Endpoint output: Cmax of CC(C)=CCc1c(O)cc(O)c2c1O[C@H](c1ccc(O)cc1)CC2=O . Value? 3.9

Endpoint output: Cmax of COc1cc(O)c(CC=C(C)C)c2c1C(=O)CC(c1ccc(O)cc1)O2 (stereo not drawn) . Value? 19.1

----------
# EXPERIMENTAL_DETAILS: clinical
# RUN_CONDITIONS: female, human, in vivo, po, Vd/F
MEASURED_PARAMETER: Vd/F (L)
Field format: number, assumed L, no unit text.

Endpoint output: Vd/F of CC(C)=CCc1c(O)cc2c(c1O)C(=O)C[C@@H](c1ccc(O)cc1)O2 [6-PN, 6-prenylnaringenin] . Value? 887

----------
Hi there, I'd appreciate the recorded Vd/F for every entry that follows.
# RUN_CONDITIONS: female, human, serum, po, 2 capsules/day, Vd/F, medium dose (2 capsules), mean ± S.D., N = 5
Field format: number, assumed L, no unit text.

Endpoint output: Vd/F of COc1cc(O)c(CC=C(C)C)c(O)c1C(=O)/C=C/c1ccc(O)cc1 [XN, xanthohumol] . Value? 3770

Endpoint output: Vd/F of COc1cc(O)c(CC=C(C)C)c2c1C(=O)CC(c1ccc(O)cc1)O2 (stereo not drawn) [IX, isoxanthohumol] . Value? 99

Endpoint output: Vd/F of CC(C)=CCc1c(O)cc(O)c2c1O[C@H](c1ccc(O)cc1)CC2=O [8-PN, 8-prenylnaringenin] . Value? 186

----------
# RUN_CONDITIONS: female, human, serum, po, 4 capsules/day, Cmax, high dose (4 capsules), mean ± S.D., N = 5
MEASURED_PARAMETER: Cmax (ng/mL)
Field format: number, assumed ng/mL, no unit text.

Endpoint output: Cmax of CC(C)=CCc1c(O)cc(O)c2c1O[C@H](c1ccc(O)cc1)CC2=O . Value? 6.7

Endpoint output: Cmax of COc1cc(O)c(CC=C(C)C)c(O)c1C(=O)/C=C/c1ccc(O)cc1 . Value? 27.6

Endpoint output: Cmax of COc1cc(O)c(CC=C(C)C)c2c1C(=O)CC(c1ccc(O)cc1)O2 (stereo not drawn) . Value? 37.6

----------
# RUN_CONDITIONS: female, human, serum, po, 2 capsules/day, Tmax, medium dose (2 capsules), mean ± S.D., N = 5
MEASURED_PARAMETER: Tmax (h)
Field format: number, assumed h, no unit text.

Endpoint output: Tmax of CC(C)=CCc1c(O)cc(O)c2c1O[C@H](c1ccc(O)cc1)CC2=O [8-PN, 8-prenylnaringenin] . Value? 7

Endpoint output: Tmax of COc1cc(O)c(CC=C(C)C)c(O)c1C(=O)/C=C/c1ccc(O)cc1 [XN, xanthohumol] . Value? 3.6

Endpoint output: Tmax of COc1cc(O)c(CC=C(C)C)c2c1C(=O)CC(c1ccc(O)cc1)O2 (stereo not drawn) [IX, isoxanthohumol] . Value? 3.2

----------
# RUN_CONDITIONS: female, human, serum, po, 2 capsules/day, T1/2, medium dose (2 capsules), mean ± S.D., N = 5
MEASURED_PARAMETER: half-life (h)
Field format: number, assumed h, no unit text.

Endpoint output: half-life of COc1cc(O)c(CC=C(C)C)c(O)c1C(=O)/C=C/c1ccc(O)cc1 . Value? 9.5

Endpoint output: half-life of COc1cc(O)c(CC=C(C)C)c2c1C(=O)CC(c1ccc(O)cc1)O2 (stereo not drawn) . Value? 24.8

----------
# RUN_CONDITIONS: female, human, serum, po, 4 capsules/day, T1/2, high dose (4 capsules), mean ± S.D., N = 5
MEASURED_PARAMETER: half-life (h)
Field format: number, assumed h, no unit text.

Endpoint output: half-life of COc1cc(O)c(CC=C(C)C)c2c1C(=O)CC(c1ccc(O)cc1)O2 (stereo not drawn) . Value? 19.9

Endpoint output: half-life of COc1cc(O)c(CC=C(C)C)c(O)c1C(=O)/C=C/c1ccc(O)cc1 . Value? 20.7

----------
# RUN_CONDITIONS: female, human, serum, po, 4 capsules/day, Tmax, high dose (4 capsules), mean ± S.D., N = 5
MEASURED_PARAMETER: Tmax (h)
Field format: number, assumed h, no unit text.

Endpoint output: Tmax of CC(C)=CCc1c(O)cc(O)c2c1O[C@H](c1ccc(O)cc1)CC2=O . Value? 2.8

Endpoint output: Tmax of COc1cc(O)c(CC=C(C)C)c2c1C(=O)CC(c1ccc(O)cc1)O2 (stereo not drawn) . Value? 4

Endpoint output: Tmax of COc1cc(O)c(CC=C(C)C)c(O)c1C(=O)/C=C/c1ccc(O)cc1 . Value? 1.8

The reported numbers originate from paper PMC4265473.
